target: 3-keto-steroid reductase/17-beta-hydroxysteroid dehydrogenase 7 (Homo sapiens) (UniProt P56937); details: HEK293, at 3 µM
Sequence (P56937 whole entry): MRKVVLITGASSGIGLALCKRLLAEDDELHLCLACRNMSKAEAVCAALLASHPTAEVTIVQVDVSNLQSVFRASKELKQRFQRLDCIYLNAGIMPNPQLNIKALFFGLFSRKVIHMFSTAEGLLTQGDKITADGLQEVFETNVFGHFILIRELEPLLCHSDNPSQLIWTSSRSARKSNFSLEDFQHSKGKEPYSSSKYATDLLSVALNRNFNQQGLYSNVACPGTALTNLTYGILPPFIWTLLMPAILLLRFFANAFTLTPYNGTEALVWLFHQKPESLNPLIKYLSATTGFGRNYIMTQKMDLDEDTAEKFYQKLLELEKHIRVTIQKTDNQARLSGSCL
Description: Inhibition of human 17beta-HSD7 expressed in HEK293 cells assessed as inhibition of reduction of [14C]estrone into [14C]estradiol at 3 uM after 7 hrs
quantity.name: inhibition (%)
Give a bare numeral; the unit % is implied.

// worked examples, inhibition included
- molecule: "CC(C)(C)NC(=O)[C@H]1CC[C@H]2[C@@H]3CC[C@H]4NC(=O)C=C[C@]4(C)[C@H]3CC[C@]12C"
  unit.symbol: "%"
  inhibition: 5.4
- molecule: "C[C@]12CC[C@H]3C(=CCc4cc(O)ccc43)[C@@H]1CC[C@@H]2O"
  unit.symbol: "%"
  inhibition: 8.8
- molecule: "CC(=O)[C@@]1(O)CC[C@H]2[C@@H]3CCC4=CC(=O)CC[C@]4(C)[C@H]3CC[C@@]21C"
  unit.symbol: "%"
  inhibition: 20.8

QUERY: Query: inhibition; subject: C[C@]12CC[C@@H]3c4ccc(O)cc4CC[C@H]3[C@@H]1CC[C@@H]2O
RESULT: 0

QUERY: Cool, now CC1=C(c2ccc(OC(=O)C(C)(C)C)cc2)[C@H](c2ccc(OCCN3CCCCC3)cc2)Oc2cc(OC(=O)C(C)(C)C)ccc21
RESULT: 0

====

target: 3-keto-steroid reductase/17-beta-hydroxysteroid dehydrogenase 7 (Homo sapiens) (UniProt P56937); conditions: HEK293, at 3 µM
quantity.name: inhibition (%)
Give a bare numeral; the unit % is implied.

- molecule: "CC1(C)CC[C@@]2(CC[C@H]3[C@@H]4CCc5cc(C(=O)O)ccc5[C@H]4CC[C@@]32C)OC1=O"
  inhibition, %: 20.9
- molecule: "CC1(C)CC[C@@]2(CC[C@H]3[C@@H]4CCc5cc(C(N)=S)ccc5[C@H]4CC[C@@]32C)OC1=O"
  inhibition, %: 60.9
- molecule: "C[C@]12CC[C@H](O)CC1=CC[C@@H]1[C@@H]2CC[C@]2(C)C(=O)CC[C@@H]12"
  inhibition, %: 12.1

QUERY: Query: inhibition; subject: C[C@]12CCC(=O)C=C1CC[C@@H]1[C@@H]2[C@@H](O)C[C@]2(C=O)[C@@H](C(=O)CO)CC[C@@H]12
RESULT: 7.3

QUERY: Cool, now CC1(C)CC[C@@]2(CC[C@H]3[C@@H]4CCC5CC(=O)CC[C@]5(C)[C@H]4CC[C@@]32C)OC1=O (stereo partly drawn)
RESULT: 26.4

====

molecular target: 3-keto-steroid reductase/17-beta-hydroxysteroid dehydrogenase 7 (Homo sapiens); conditions: HEK293, at 0.3 µM
Description: Inhibition of human 17beta-HSD7 expressed in HEK293 cells assessed as inhibition of reduction of [14C]estrone into [14C]estradiol at 0.3 uM after 7 hrs
Entries are sorted into classes by inhibition as follows: bucket 1 (below 30%), bucket 2 (30% to below 50%), bucket 3 (50% or more)

Field: example entries. Status: answers known.
- smiles.input: "CC1=C(c2ccc(OC(=O)C(C)(C)C)cc2)[C@H](c2ccc(OCCN3CCCCC3)cc2)Oc2cc(OC(=O)C(C)(C)C)ccc21"
  class.name: "bucket 1"
- smiles.input: "C[C@]12CC[C@@H]3c4ccc(O)cc4CC[C@H]3[C@@H]1CC[C@@]21CCCC(=O)O1"
  class.name: "bucket 1"

QUERY: Which class does CCCCCCCCCCCCN(C(=O)c1ccc(CCl)cc1)[C@H]1CC[C@H]2[C@@H]3CC[C@H]4N(C)C(=O)CC[C@]4(C)[C@H]3CC[C@]12C fall in?
RESULT: bucket 2

QUERY: Cool, now CCCCCCCN(C(=O)c1ccccc1)[C@H]1CC[C@H]2[C@@H]3CC[C@H]4N(C)C(=O)CC[C@]4(C)[C@H]3CC[C@]12C
RESULT: bucket 3

QUERY: Cool, now CCCN(C=O)[C@H]1CC[C@H]2[C@@H]3CC[C@H]4N(C)C(=O)CC[C@]4(C)[C@H]3CC[C@]12C
RESULT: bucket 1
